experimental-system: Heat shock protein HSP 90-alpha (Homo sapiens)
method-description: Binding affinity to human HSP90-alpha N-terminal domain assessed as dissociation constant at 100 uM at 25 degC by isothermal titration calorimetry

| mol-smiles | unit-spec | Kd |
| --- | --- | --- |
| CCc1cc(C(N)=O)ccc1-n1nc(C(C)C)c2c(-n3cnc(-c4cnn(C)c4)c3)ccnc21 | nM | 170 |

----------
experimental-system: Heat shock protein HSP 90-alpha (Homo sapiens, UniProt P07900)

| mol-smiles | unit-spec | IC50 |
| --- | --- | --- |
| CC(C)c1n[nH]c2nccc(-n3cnc(-c4cccnc4)c3)c12 | µM | 293 |

----------
experimental-system: Heat shock protein HSP 90-beta (Homo sapiens, UniProt P08238)
Sequence (P08238 whole entry): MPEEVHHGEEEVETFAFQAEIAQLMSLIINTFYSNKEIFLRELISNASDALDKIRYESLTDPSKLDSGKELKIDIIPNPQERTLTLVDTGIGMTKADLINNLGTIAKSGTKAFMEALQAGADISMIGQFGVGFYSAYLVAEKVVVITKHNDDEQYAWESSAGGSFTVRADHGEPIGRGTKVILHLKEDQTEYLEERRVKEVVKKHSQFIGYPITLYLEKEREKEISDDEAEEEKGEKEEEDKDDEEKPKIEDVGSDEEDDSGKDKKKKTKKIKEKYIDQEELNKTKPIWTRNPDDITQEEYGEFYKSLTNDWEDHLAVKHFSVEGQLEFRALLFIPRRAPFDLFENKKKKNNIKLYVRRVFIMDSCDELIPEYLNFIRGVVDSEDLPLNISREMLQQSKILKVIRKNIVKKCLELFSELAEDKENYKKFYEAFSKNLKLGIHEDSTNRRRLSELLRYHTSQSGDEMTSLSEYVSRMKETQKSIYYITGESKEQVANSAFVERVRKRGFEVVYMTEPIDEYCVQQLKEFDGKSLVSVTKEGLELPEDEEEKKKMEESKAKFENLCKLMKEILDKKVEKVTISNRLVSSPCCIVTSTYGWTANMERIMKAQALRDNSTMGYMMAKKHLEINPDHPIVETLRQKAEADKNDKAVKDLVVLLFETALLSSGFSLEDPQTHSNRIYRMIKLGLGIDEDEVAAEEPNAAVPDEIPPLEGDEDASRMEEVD
pKi: −log10 of the molar value.

| molecule | pKi |
| --- | --- |
| NC(=O)c1ccc(-c2nccc3c(-n4cnc(-c5ccccc5)c4)ccnc23)cc1NC1CCC(O)CC1 (stereo unspecified) | 4.77 |

----------
experimental-system: Heat shock protein HSP 90-beta (Homo sapiens, UniProt P08238)

| mol-smiles | experimental-system | IC50 [µM] |
| --- | --- | --- |
| CC(C)c1n[nH]c2nccc(-n3cnc(-c4cccnc4)c3)c12 | Heat shock protein HSP 90-beta (Homo sapiens, UniProt P08238) | 89 |

----------
experimental-system: UniProt:Q12931
Sequence (Q12931 whole entry): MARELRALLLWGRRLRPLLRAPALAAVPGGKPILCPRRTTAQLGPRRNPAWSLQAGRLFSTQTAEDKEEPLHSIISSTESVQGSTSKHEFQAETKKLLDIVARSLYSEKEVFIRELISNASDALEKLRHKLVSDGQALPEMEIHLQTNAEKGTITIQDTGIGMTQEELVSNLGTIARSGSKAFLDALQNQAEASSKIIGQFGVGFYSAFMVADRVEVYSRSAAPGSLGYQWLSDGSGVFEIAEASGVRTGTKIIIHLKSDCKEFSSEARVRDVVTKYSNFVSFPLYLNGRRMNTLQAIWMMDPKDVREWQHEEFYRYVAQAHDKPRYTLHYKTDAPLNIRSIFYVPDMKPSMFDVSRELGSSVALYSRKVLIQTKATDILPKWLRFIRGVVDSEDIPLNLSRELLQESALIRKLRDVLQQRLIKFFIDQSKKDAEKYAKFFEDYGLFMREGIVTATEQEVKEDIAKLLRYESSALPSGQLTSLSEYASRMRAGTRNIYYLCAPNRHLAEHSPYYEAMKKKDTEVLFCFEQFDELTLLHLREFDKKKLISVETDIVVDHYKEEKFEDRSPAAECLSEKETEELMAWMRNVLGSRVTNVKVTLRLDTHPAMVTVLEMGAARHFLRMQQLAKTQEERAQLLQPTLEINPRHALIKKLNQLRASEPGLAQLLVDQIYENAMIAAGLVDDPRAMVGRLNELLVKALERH
method-description: Binding affinity to TRAP1 (unknown origin) by fluorescence polarization competitive binding assay
metric-name: IC50

| mol-smiles | meas-value |
| --- | --- |
| CC(C)c1n[nH]c2nccc(-n3cnc(-c4cccnc4)c3)c12 | > 300 µM |
